Examples of binders with documented kon follow.
# system-under-test: T1, recombinant C-terminally truncated RSV (A2 strain) F protein (RSV (A2 strain), UniProt P03420 26-524)
# T1 construct: extracellular domain; also called truncated F protein; extracellular domain of the F protein from RSV A2
# T1 sequence (P03420 26-109, chain 1 of 2): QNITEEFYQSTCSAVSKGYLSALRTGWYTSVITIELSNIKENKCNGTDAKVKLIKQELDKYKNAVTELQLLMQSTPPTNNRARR
# T1 sequence (P03420 137-524, chain 2 of 2): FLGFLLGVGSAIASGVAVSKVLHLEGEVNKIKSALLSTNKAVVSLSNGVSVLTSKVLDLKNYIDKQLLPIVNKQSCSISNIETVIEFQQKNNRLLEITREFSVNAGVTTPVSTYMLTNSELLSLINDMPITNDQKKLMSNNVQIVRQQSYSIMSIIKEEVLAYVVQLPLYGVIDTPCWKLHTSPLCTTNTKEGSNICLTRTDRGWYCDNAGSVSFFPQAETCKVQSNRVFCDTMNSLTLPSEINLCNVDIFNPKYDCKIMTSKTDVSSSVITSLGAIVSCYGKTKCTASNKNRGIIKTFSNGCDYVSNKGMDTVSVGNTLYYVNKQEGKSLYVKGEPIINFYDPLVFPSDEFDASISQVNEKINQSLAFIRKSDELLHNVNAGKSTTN
# test-description: SPR (BIAcore), Fab over immobilised F

binder	kon, M⁻¹ s⁻¹
G93W Fab (Fab, name in Kabat numbering, V domains shown) VH: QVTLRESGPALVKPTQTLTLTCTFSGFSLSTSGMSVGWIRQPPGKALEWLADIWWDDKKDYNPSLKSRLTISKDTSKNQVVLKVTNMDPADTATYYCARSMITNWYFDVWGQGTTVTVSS VL: DIQMTQSPSTLSASVGDRVTITCSASSSVGYMHWYQQKPGKAPKLLIYDTSKLASGVPSRFSGSGSGTEFTLTISSLQPDDFATYYCFQGSWYPFTFGGGTKVEIK	150000
S52Y Fab (Fab, name in Kabat numbering, V domains shown) VH: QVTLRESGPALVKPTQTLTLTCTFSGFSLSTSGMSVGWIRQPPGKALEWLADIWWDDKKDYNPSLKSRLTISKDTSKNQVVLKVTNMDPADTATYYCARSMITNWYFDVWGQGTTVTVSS VL: DIQMTQSPSTLSASVGDRVTITCSASSSVGYMHWYQQKPGKAPKLLIYDTYKLASGVPSRFSGSGSGTEFTLTISSLQPDDFATYYCFQGSGYPFTFGGGTKVEIK	170000
AFFG Fab (Fab, name in Kabat numbering, V domains shown) VH: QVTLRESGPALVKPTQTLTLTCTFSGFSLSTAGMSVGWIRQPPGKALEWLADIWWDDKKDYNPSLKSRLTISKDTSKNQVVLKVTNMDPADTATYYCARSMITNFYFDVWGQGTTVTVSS VL: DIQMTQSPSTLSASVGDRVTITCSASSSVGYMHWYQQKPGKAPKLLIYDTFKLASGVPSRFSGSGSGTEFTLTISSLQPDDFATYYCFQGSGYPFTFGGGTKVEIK	133000
